Origin of the recorded values: PubChem BioAssay AID1963973

- Tested on: 883617-216-R-J1-PDC tumor spheroids, viability
- test.description: Anticancer human tumor 883617-216-R-J1-PDC patient-derived bladder carcinoma cell line growth inhibition [PI3K]; active = viability on the fitted dose curve at most 10% of control; inactive = the rest
- experimental.context: second compound 10 µM; first compound 0.316 µM; spheroids with HUVEC and MSC
Pick from active, inactive when you respond.

{"columns": ["compound", "label.class"],
 "data": [
  ["CCCS(=O)(=O)Nc1ccc(F)c(C(=O)c2c[nH]c3ncc(-c4ccc(Cl)cc4)cc23)c1F + CC(Nc1ncnc2nc[nH]c12)c1cc2cccc(Cl)c2c(=O)n1-c1ccccc1", "inactive"],
  ["C[C@@H](NC(=O)c1ncnc(N)c1Cl)c1ncc(C(=O)Nc2cc(C(F)(F)F)c(Cl)cn2)s1 + CC(Nc1ncnc2nc[nH]c12)c1cc2cccc(Cl)c2c(=O)n1-c1ccccc1", "inactive"],
  ["C[C@@H](NC(=O)c1ncnc(N)c1Cl)c1ncc(C(=O)Nc2cc(C(F)(F)F)c(Cl)cn2)s1 + Cc1nc(NC(=O)N2CCCC2C(N)=O)sc1-c1ccnc(C(C)(C)C(F)(F)F)c1", "active"],
  ["CC(C)NCC(C(=O)N1CCN(c2ncnc3c2C(C)CC3O)CC1)c1ccc(Cl)cc1 (stereo unspecified) + Cc1nc(NC(=O)N2CCCC2C(N)=O)sc1-c1ccnc(C(C)(C)C(F)(F)F)c1", "active"],
  ["CC1(C)CCC(Nc2ncc(C(F)(F)F)c(-c3c[nH]c4c(P(C)(C)=O)c(C#N)ccc34)n2)CN1 (stereo unspecified) + Cc1nc(NC(=O)N2CCCC2C(N)=O)sc1-c1ccnc(C(C)(C)C(F)(F)F)c1", "active"]
]}

stdin: Please let me know the test result on file for Cn1nccc1Nc1nccc(-c2ccn(C(CO)c3ccc(Cl)c(F)c3)c(=O)c2)n1 (stereo unspecified) + Cc1nc(NC(=O)N2CCCC2C(N)=O)sc1-c1ccnc(C(C)(C)C(F)(F)F)c1 .
stdout: active

stdin: One more compound: CC(Cn1ccc(-c2ccc(C#N)c(Cl)c2)n1)NC(=O)c1cc(C(C)O)[nH]n1 (stereo unspecified) + Cc1nc(NC(=O)N2CCCC2C(N)=O)sc1-c1ccnc(C(C)(C)C(F)(F)F)c1
stdout: active

* * *

I'd be grateful if you could share measured viability, T/C for these entries.
- Tested on: 883617-216-R-J1-PDC tumor spheroids, viability
- test.description: Anticancer human tumor 883617-216-R-J1-PDC cell line growth inhibition [PI3K];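 note: spheroids exposed to agents for 7 days before the viability read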
- experimental.context: compound 1 µM; stronger effect = lower value; spheroids with HUVEC and MSC

Some solved cases for reference:
{"columns": ["molecule", "viability, T/C"],
 "data": [
  ["Cn1ncc(Cl)c1-c1cc(C(=O)NC(CN)Cc2cccc(F)c2)sc1Cl (stereo not given)", "34.5% [middle of 4 runs]"],
  ["Cc1nc(NC(=O)N2CCCC2C(N)=O)sc1-c1ccnc(C(C)(C)C(F)(F)F)c1 (stereo not given)", "28.3% [middle of 8 runs]"]
]}

Hey, can you go through the list below and give me viability, T/C for every item?
1. CCN1CCN(Cc2ccc(Nc3ncc(F)c(-c4cc(F)c5nc(C)n(C(C)C)c5c4)n3)nc2)CC1
2. C=CC(=O)N1CCN(c2nc(=O)n(-c3c(C)ccnc3C(C)C)c3nc(-c4c(O)cccc4F)c(F)cc23)C(C)C1 (stereo not given)
3. CC(Nc1ncnc2nc[nH]c12)c1cc2cccc(Cl)c2c(=O)n1-c1ccccc1 (stereo not given)

stdout:
1: 47.2% [middle of 4 runs]; 2: 58.9% [middle of 4 runs]; 3: 85.6% [middle of 8 runs]
